Provide the recorded inhibition at 1 µM for the entries that follow.
Assayed target: MAO B (Homo sapiens, UniProt P27338)
Construct: purchased Sigma-Aldrich
Sequence (P27338 1-520): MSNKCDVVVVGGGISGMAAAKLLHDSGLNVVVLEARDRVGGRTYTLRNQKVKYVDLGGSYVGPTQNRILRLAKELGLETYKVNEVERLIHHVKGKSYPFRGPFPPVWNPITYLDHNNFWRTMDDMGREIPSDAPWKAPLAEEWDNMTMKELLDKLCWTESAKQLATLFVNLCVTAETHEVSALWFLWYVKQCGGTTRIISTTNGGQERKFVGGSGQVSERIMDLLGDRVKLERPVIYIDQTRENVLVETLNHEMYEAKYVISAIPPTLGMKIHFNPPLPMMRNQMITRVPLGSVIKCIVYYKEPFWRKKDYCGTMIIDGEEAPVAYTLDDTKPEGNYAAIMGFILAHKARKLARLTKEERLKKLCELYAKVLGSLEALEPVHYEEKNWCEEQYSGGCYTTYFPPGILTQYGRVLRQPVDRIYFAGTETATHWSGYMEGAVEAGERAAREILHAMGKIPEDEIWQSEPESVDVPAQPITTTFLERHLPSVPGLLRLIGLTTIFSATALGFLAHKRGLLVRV
Method summary: MAO B inhibition, discontinuous fluorimetric kynuramine assay
Assay type: biochemical
Recorded conditions: 1 μM inhibitor; mean ± SD, n = 2; normalized to control
Respond numerically; units are % and should not be typed.

[ask] Identify the reported inhibition at 1 µM for the following entry. Cc1ccc(-c2c[se]c(NN=Cc3ccccc3[N+](=O)[O-])n2)cc1 [Compound 2-Me]
[reply] 22.1

[ask] Tell me its inhibition at 1 µM given O=[N+]([O-])c1ccc(C=NNc2nc(-c3ccccc3)c[se]2)cc1 [Compound 4] as the entry.
[reply] 96.3

[ask] Identify the reported inhibition at 1 µM for the following entry. O=[N+]([O-])c1ccccc1C=NNc1nc(-c2ccccc2)c[se]1 [Compound 2]
[reply] 64.8

[ask] Hello, please tell me recorded inhibition at 1 µM for this one: COc1ccc(-c2c[se]c(NN=Cc3ccc([N+](=O)[O-])cc3)n2)cc1 [Compound 4-OMe]
[reply] 42.5

[ask] Quick one: give measured inhibition at 1 µM for Cc1ccc(-c2c[se]c(NN=Cc3ccc([N+](=O)[O-])cc3)n2)cc1 [Compound 4-Me]
[reply] 48.1

[ask] Fill in reported inhibition at 1 µM for this entry: Cc1ccc(-c2c[se]c(NN=Cc3ccccc3)n2)cc1 [Compound 1-Me]
[reply] 23.4

[ask] Please give measured inhibition at 1 µM of the following entry: COc1ccc(-c2c[se]c(NN=Cc3cccc([N+](=O)[O-])c3)n2)cc1 [Compound 3-OMe]
[reply] 23.8

# credit: paper PMC6037691
